target_under_test: Mu-type opioid receptor (Homo sapiens)
assay_procedure: Activity at human mu opioid receptor expressed in CHO cells by [35S]GTP-gamma-S binding assay
Type: functional, cell-based
assay_readout: Emax
Provide the measurement as a number trailed by its unit.

Worked examples, 5 compounds total:
O=C(/C=C/C=C/C(=O)Oc1ccc2c(c1)[C@@]13CCCCC1[C@@H](C2)N(CC1CCC1)CC3)Oc1ccc2c(c1)[C@@]13CCCCC1[C@@H](C2)N(CC1CCC1)CC3 (stereo partly drawn)	96%
O=C(O)CCCCCCCCC(=O)Oc1ccc2c(c1)[C@@]13CCCCC1[C@@H](C2)N(CC1CCC1)CC3 (stereo partly drawn)	110%
O=C(CCCCCCCCC(=O)Oc1ccc2c(c1)[C@@]13CCCCC1[C@@H](C2)N(C[C@@H]1CCCO1)CC3)Oc1ccc2c(c1)[C@@]13CCCCC1[C@@H](C2)N(C[C@@H]1CCCO1)CC3 (stereo partly drawn)	69%
O=C(CCCCCCCCC(=O)Oc1ccc2c(c1)[C@]13CCCCC1[C@H](C2)N(CC1CCC1)CC3)Oc1ccc2c(c1)[C@@]13CCCCC1[C@@H](C2)N(CC1CCC1)CC3 (single isomer, unassigned; (+))	28%
O=C(CCCCCCCCC(=O)Oc1ccc2c(c1)[C@@]13CCCCC1[C@@H](C2)N(CC1CCC1)CC3)Nc1ccc2c(c1)[C@@]13CCCCC1[C@@H](C2)N(CC1CCC1)CC3 (stereo partly drawn)	56%

// CN1CC[C@]23c4c5ccc(OC(=O)CCCCCCCCC(=O)Oc6ccc7c(c6)[C@@]68CCCCC6[C@@H](C7)N(CC6CCC6)CC8)c4O[C@H]2[C@@H](O)C=C[C@H]3[C@H]1C5 (stereo partly drawn) : Emax value = 110%

// recorded Emax for O=C(CCCCCCCCC(=O)Oc1ccc2c(c1)[C@@]13CCCCC1[C@@H](C2)N(CC1CCC1)CC3)Oc1ccccc1 (stereo partly drawn) : 93%

Briefly, Emax measured for O=C(CCCCCCCCC(=O)Oc1ccc2c(c1)[C@@]13CCCCC1[C@@H](C2)N(CC1CC1)CC3)Oc1ccc2c(c1)[C@@]13CCCCC1[C@@H](C2)N(CC1CCC1)CC3 (single isomer, unassigned; (-)) : 41%

###

target_under_test: Mu-type opioid receptor (Homo sapiens, UniProt P35372)
Sequence (P35372 whole entry): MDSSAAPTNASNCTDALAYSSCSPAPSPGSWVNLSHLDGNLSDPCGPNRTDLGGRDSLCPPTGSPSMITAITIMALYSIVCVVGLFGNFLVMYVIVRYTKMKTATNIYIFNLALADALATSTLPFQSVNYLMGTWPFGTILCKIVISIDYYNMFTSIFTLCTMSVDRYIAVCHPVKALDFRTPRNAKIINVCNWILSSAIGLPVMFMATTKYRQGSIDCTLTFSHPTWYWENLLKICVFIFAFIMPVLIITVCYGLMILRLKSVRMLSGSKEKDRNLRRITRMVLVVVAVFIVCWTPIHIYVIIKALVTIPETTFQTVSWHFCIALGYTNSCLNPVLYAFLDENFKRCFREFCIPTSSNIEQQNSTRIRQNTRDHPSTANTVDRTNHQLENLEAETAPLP
assay_procedure: Activity at human mu opioid receptor expressed in CHO cells by [35S]GTP-gamma-S binding assay
Format: functional, cell-based
assay_readout: pEC50
Keep it numeric: pEC50 is minus log10 of the concentration in mol/L.

O=C(CCCCCCCCC(=O)Oc1ccc2c(c1)[C@@]13CCCCC1[C@@H](C2)N(CC1CCC1)CC3)Oc1ccccc1 (some centres not stated)	8.29

Reported pEC50 ( O=C(CCCCCCCCC(=O)Oc1ccc2c(c1)[C@@]13CCCCC1[C@@H](C2)N(CC1CC1)CC3)Oc1ccc2c(c1)[C@@]13CCCCC1[C@@H](C2)N(CC1CCC1)CC3 (single isomer, unassigned; (-)) ) = 8.54

Reported pEC50 ( O=C(/C=C/C=C/C(=O)Oc1ccc2c(c1)[C@@]13CCCCC1[C@@H](C2)N(CC1CCC1)CC3)Oc1ccc2c(c1)[C@@]13CCCCC1[C@@H](C2)N(CC1CCC1)CC3 (some centres not stated) ) = 7.72

Field pEC50 (entry O=C(O)CCCCCCCCC(=O)Oc1ccc2c(c1)[C@@]13CCCCC1[C@@H](C2)N(CC1CCC1)CC3 (some centres not stated) ) reads 8.52

The recorded pEC50 for entry CN1CC[C@]23c4c5ccc(OC(=O)CCCCCCCCC(=O)Oc6ccc7c(c6)[C@@]68CCCCC6[C@@H](C7)N(CC6CCC6)CC8)c4O[C@H]2[C@@H](O)C=C[C@H]3[C@H]1C5 (some centres not stated) equals 8.60

The compound listed as O=C(CCCCCCCCC(=O)Oc1ccc2c(c1)[C@@]13CCCCC1[C@@H](C2)N(CC1CCC1)CC3)Nc1ccc2c(c1)[C@@]13CCCCC1[C@@H](C2)N(CC1CCC1)CC3 (some centres not stated) shows pEC50 equal to 8.36

# compound O=C(CCCCCCCCC(=O)Oc1ccc2c(c1)[C@@]13CCCCC1[C@@H](C2)N(C[C@@H]1CCCO1)CC3)Oc1ccc2c(c1)[C@@]13CCCCC1[C@@H](C2)N(C[C@@H]1CCCO1)CC3 (some centres not stated) ; its pEC50 = 7.92

###

Below, each entry is listed alongside its reported pKi.
target_under_test: Delta-type opioid receptor (Homo sapiens, UniProt P41143)
Sequence (P41143 whole entry): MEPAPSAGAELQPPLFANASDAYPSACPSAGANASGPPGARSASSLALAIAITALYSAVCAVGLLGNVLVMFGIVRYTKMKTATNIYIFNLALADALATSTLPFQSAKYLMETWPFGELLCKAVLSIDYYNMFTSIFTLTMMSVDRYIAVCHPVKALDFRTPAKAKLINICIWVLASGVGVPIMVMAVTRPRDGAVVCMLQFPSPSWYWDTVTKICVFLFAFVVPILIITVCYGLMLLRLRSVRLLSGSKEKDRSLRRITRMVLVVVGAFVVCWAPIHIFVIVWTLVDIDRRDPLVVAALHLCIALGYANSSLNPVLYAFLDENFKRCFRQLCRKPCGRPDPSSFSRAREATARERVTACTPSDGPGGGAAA
assay_procedure: Displacement of [3H]naltrindole from human delta opioid receptor expressed in CHO cells
Friendly reminder that pKi comes from taking -log10 of the concentration in mol/L.

Oc1ccc2c(c1)[C@]13CCCCC1[C@H](C2)N(CC1CC1)CC3 (single isomer, unassigned; (+))	7.89

Then this compound:
Measured pKi of O=C(CCCCCCCCC(=O)Oc1ccc2c(c1)[C@@]13CCCCC1[C@@H](C2)N(CC1CC1)CC3)Oc1ccc2c(c1)[C@@]13CCCCC1[C@@H](C2)N(CC1CCC1)CC3 (single isomer, unassigned; (-)) : 8.36

###

List of pKi tested on Mu-type opioid receptor (Homo sapiens, UniProt P35372).
// pKi here means minus log10 of the molar concentration (mol/L)

O=C(CCCCCCCCC(=O)Oc1ccc2c(c1)[C@@]13CCCCC1[C@@H](C2)N(CC1CCC1)CC3)Nc1ccc2c(c1)[C@@]13CCCCC1[C@@H](C2)N(CC1CCC1)CC3 (stereo partly specified)	9.19
C#CCN1CC[C@]23CCCC[C@H]2[C@H]1Cc1ccc(O)cc13	11.52
O=C(CCCCCCCCC(=O)Oc1ccc2c(c1)[C@@]13CCCCC1[C@@H](C2)N(C[C@@H]1CCCO1)CC3)Oc1ccc2c(c1)[C@@]13CCCCC1[C@@H](C2)N(C[C@@H]1CCCO1)CC3 (stereo partly specified)	9.17
O=C(CCCCCCCCC(=O)Oc1ccc2c(c1)[C@]13CCCCC1[C@H](C2)N(CC1CCC1)CC3)Oc1ccc2c(c1)[C@]13CCCCC1[C@H](C2)N(CC1CCC1)CC3 (stereo partly specified)	6.89
C#CCN1CC[C@]23CCCCC2[C@H]1Cc1ccc(OC(=O)CCCCCCCCC(=O)Oc2ccc4c(c2)[C@@]25CCCCC2[C@@H](C4)N(CC#C)CC5)cc13 (stereo partly specified)	7.85
O=C(O)CCCCCCCCC(=O)Oc1ccc2c(c1)[C@@]13CCCCC1[C@@H](C2)N(CC1CCC1)CC3 (stereo partly specified)	9.15

Switching to the query record.
get_value(item= O=C(CCCCCCCCC(=O)Oc1ccc2c(c1)[C@@]13CCCCC1[C@@H](C2)N(CC1CC1)CC3)Oc1ccc2c(c1)[C@@]13CCCCC1[C@@H](C2)N(CC1CCC1)CC3 (single isomer, unassigned; (-)) , readout=pKi) returns 9.47

###

target_under_test: Kappa-type opioid receptor (Homo sapiens, UniProt P41145)
Sequence (P41145 whole entry): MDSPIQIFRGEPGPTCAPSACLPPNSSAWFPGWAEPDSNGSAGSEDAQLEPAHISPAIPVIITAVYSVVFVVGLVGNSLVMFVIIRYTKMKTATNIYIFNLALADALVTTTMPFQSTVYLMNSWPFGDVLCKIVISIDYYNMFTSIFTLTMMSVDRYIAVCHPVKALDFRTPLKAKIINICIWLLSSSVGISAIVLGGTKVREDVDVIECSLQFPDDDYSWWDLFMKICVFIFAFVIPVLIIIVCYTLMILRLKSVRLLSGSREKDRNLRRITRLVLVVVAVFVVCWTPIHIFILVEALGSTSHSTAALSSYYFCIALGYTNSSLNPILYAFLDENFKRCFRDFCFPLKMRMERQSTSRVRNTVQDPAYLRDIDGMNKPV
Measured pKi values are reported for all entries that follow.
Hey, just a heads up that pKi is the negative log base 10 of the concentration in molar.

O=C(/C=C/C(=O)Oc1ccc2c(c1)[C@@]13CCCC[C@H]1[C@@H](C2)N(CC1CCC1)CC3)Oc1ccc2c(c1)[C@@]13CCCC[C@H]1[C@@H](C2)N(CC1CCC1)CC3	10.10
O=C(CCCCCCCCC(=O)Oc1ccc2c(c1)[C@]13CCCCC1[C@H](C2)N(CC1CCC1)CC3)Oc1ccc2c(c1)[C@@]13CCCCC1[C@@H](C2)N(CC1CCC1)CC3 (single isomer, unassigned; (+))	8.92
Nc1ccc2c(c1)[C@@]13CCCC[C@H]1[C@@H](C2)N(CC1CCC1)CC3	8.74
O=C(CCCCCCCCC(=O)Oc1ccc2c(c1)[C@]13CCCCC1[C@H](C2)N(CC1CCC1)CC3)Oc1ccc2c(c1)[C@]13CCCCC1[C@H](C2)N(CC1CCC1)CC3 (some centres not stated)	6.89
O=C(CCCCCCCCC(=O)Oc1ccc2c(c1)[C@@]13CCCCC1[C@@H](C2)N(CC1CCC1)CC3)Oc1ccccc1 (some centres not stated)	9.52

Recorded pKi for O=C(CCCCCCCCC(=O)Oc1ccc2c(c1)[C@@]13CCCCC1[C@@H](C2)N(C[C@@H]1CCCO1)CC3)Oc1ccc2c(c1)[C@@]13CCCCC1[C@@H](C2)N(C[C@@H]1CCCO1)CC3 (some centres not stated) on Kappa-type opioid receptor (Homo sapiens, UniProt P41145) was 8.92

// pKi (Kappa-type opioid receptor (Homo sapiens, UniProt P41145)) for O=C(CCC(=O)Oc1ccc2c(c1)[C@@]13CCCCC1[C@@H](C2)N(CC1CCC1)CC3)Oc1ccc2c(c1)[C@@]13CCCCC1[C@@H](C2)N(CC1CCC1)CC3 (some centres not stated) = 10.12

###

target_under_test: Kappa-type opioid receptor (Homo sapiens)
assay_procedure: Activity at human kappa opioid receptor expressed in CHO cells by [35S]GTP-gamma-S binding assay
assay_readout: pEC50
Scale explanation: pEC50 corresponds to minus log10 of a concentration expressed in moles per litre.

Value of pEC50 reported for the compound O=C(CCCCCCCCC(=O)Oc1ccc2c(c1)[C@]13CCCCC1[C@H](C2)N(CC1CCC1)CC3)Oc1ccc2c(c1)[C@@]13CCCCC1[C@@H](C2)N(CC1CCC1)CC3 (single isomer, unassigned; (+)) is 8.10

Lab note: O=C(CCCCCCCCC(=O)Oc1ccc2c(c1)[C@@]13CCCCC1[C@@H](C2)N(CC1CCC1)CC3)Nc1ccc2c(c1)[C@@]13CCCCC1[C@@H](C2)N(CC1CCC1)CC3 (stereo partly drawn) gave pEC50 of 8.06

Input O=C(CCCCCCCCC(=O)Oc1ccc2c(c1)[C@@]13CCCCC1[C@@H](C2)N(CC1CCC1)CC3)Oc1ccccc1 (stereo partly drawn) . Output pEC50: 8.42

compound O=C(CCCCCCCCC(=O)Oc1ccc2c(c1)[C@@]13CCCCC1[C@@H](C2)N(C[C@@H]1CCCO1)CC3)Oc1ccc2c(c1)[C@@]13CCCCC1[C@@H](C2)N(C[C@@H]1CCCO1)CC3 (stereo partly drawn) , pEC50 observed: 8.06

# compound O=C(O)CCCCCCCCC(=O)Oc1ccc2c(c1)[C@@]13CCCCC1[C@@H](C2)N(CC1CCC1)CC3 (stereo partly drawn) ; its pEC50 = 8.55

// data source = ChEMBL document CHEMBL1148605
